experiment: Viability qHTS for spleen associated tyrosine kinase inhibitor (SYKi) naive MV4-11 cells (AID 1963823); details: MV4-11 AML viability, CellTiter-Glo luminescence, 72 h; series mostly up to 45 µM; further: nearly all actives have a fitted effect of over 40% in size
Inconclusive results are not listed. Calls of active or inactive are those of the source. The call rests on the fitted dose curve; in most records, active means well fitted cell-killing curve with a large enough effect; inconclusive means small, poorly fitted or top-dose-only effect, or effect the other way; inactive means no such curve, though single readings can be large or run the other way.
Outcomes: yes (active), no (inactive)

Compound	Classification
O=C1NC(=O)/C(=C\c2ccc3nccc(-c4ccncc4)c3c2)S1	yes
CN1CCC[C@@H]1c1cccnc1	no
Oc1ccc(C2CCN(c3ccnc4ccccc34)CC2)cc1O	yes
C1CCN2CC3C[C@@H](CN4CCCC[C@@H]34)[C@H]2C1	no
C[C@@H]1CC[C@]2(C(=O)O)CC[C@]3(C)C(=CCC4[C@]5(C)C(CC[C@]43C)C(C)(C)[C@@H](O)[C@H](O)[C@@H]5O)C2[C@]1(C)O (stereo not given in full)	no
CC1(C)CCC(C)(C)c2cc3c(cc21)Sc1ccccc1N=C3c1ccc(C(=O)O)cc1	no
CCOC(=O)C(=O)c1csc(NC=O)n1	no
CC(C)(C)c1cnc(CSc2cnc(NC(=O)C3CCNCC3)s2)o1	yes
CNS(=O)(=O)c1ccccc1Nc1nc(Nc2ccc(N3CCN(C)CC3)cc2OC)ncc1Br	yes
C=C(C(=O)O)C1CCC(C)C2CCC(=O)OC2(C)C1 (stereo not given)	no
